Molecular target: Sphingosine 1-phosphate receptor 3 (Homo sapiens)
Sequence (Q99500 whole entry): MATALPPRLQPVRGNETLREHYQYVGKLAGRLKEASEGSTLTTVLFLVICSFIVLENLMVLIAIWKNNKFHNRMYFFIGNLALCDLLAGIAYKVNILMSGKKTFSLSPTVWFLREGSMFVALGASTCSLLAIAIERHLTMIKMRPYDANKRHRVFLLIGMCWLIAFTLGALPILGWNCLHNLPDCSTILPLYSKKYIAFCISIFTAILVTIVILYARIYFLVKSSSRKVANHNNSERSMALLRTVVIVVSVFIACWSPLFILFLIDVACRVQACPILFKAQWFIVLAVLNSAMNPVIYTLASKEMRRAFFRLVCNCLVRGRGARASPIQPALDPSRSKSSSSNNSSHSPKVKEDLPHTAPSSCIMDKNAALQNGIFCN
Assay: Activity at S1P3 receptor by [35S]GTP-gammaS binding assay
Format: functional
Conditions: filed as agonist
PARAMETER: Activity

Answered cases to consult:
- MOLECULE: "O=C(O)C[C@@H]1CC[C@H](c2ccc(-c3noc(-c4ccc(C5CCCCC5)cc4)n3)cc2)N1 (racemic)"
  Activity: "Agonist"
- MOLECULE: "O=C(O)C[C@@H]1CC[C@H](c2ccc(-c3noc(-c4ccc([C@@H]5CCC(F)(F)C5)cc4)n3)cc2)N1 (racemic)"
  Activity: "Agonist"
- MOLECULE: "CC(C)Cc1ccc(-c2nc(-c3ccc([C@H]4CC[C@@H](CC(=O)O)N4)cc3)no2)cc1 (racemic)"
  Activity: "Agonist"
- MOLECULE: "O=C(O)C[C@@H]1CC[C@H](c2ccc(-c3noc(-c4ccc([C@@H]5CCC(F)(F)C5)cc4)n3)cc2)N1 (stereo in doubt; form 2)"
  Activity: "Agonist"
- MOLECULE: "O=C(O)C[C@@H]1CC[C@H](c2ccc(-c3noc(-c4ccc(C5CCCC5)c(F)c4)n3)cc2)N1 (racemic)"
  Activity: "Agonist"
- MOLECULE: "CC(C)Cc1ccc(-c2nc(-c3ccc([C@H]4CC[C@@H](C(=O)O)N4)cc3)no2)cc1 (racemic)"
  Activity: "Agonist"

Task: Activity for O=C(O)C[C@@H]1CC[C@H](c2ccc(-c3noc(-c4ccc(C5CCCC5)cc4F)n3)cc2)N1 (racemic) ?
Result: Agonist
